I'd be grateful if you could share measured CC50 at 24 h for these entries.
# assay: Cytotoxicity on L929 fibroblasts (resazurin)
# condition.label: mouse

Prompt: Would you mind telling me what CC50 at 24 h value was observed for CC1(C)C=Cc2c(OC(=O)CCCc3cn(Cc4ccc(Br)cc4)nn3)c(OC(=O)CCCc3cn(Cc4ccc(Br)cc4)nn3)c3ccccc3c2O1 ?
Response: > 256 µM

Prompt: So what's the measured CC50 at 24 h for this one? C#CCCCC(=O)Oc1c2c(c3ccccc3c1OC(=O)CCCC#C)OC(C)(C)C=C2
Response: 128 µM

Prompt: Requested field: CC50 at 24 h. Item: CC1(C)C=Cc2c(OC(=O)CCc3cn(-c4ccccc4)nn3)c(OC(=O)CCc3cn(-c4ccccc4)nn3)c3ccccc3c2O1
Response: > 256 µM

Prompt: CC50 at 24 h lookup needed for Cc1ccc(-n2cc(CCC(=O)Oc3c4c(c5ccccc5c3OC(=O)CCc3cn(-c5ccc(C)cc5)nn3)OC(C)(C)C=C4)nn2)cc1 , thanks.
Response: > 256 µM

* * *

Form: system (M. abscessus LIID-03), quantity (MIC), values below.

Prompt: Requested read-out: MIC. Entry: Cc1ccc(S(=O)(=O)n2cc(CCCC(=O)Oc3c4c(c5ccccc5c3OC(=O)CCCc3cn(S(=O)(=O)c5ccc(C)cc5)nn3)OC(C)(C)C=C4)nn2)cc1
Response: 100 µg/mL

Prompt: # query: MIC of entry CC(=O)O[C@@H]1[C@@H](OC(C)=O)[C@H](OC(C)=O)CO[C@H]1n1cc(CCCC(=O)Oc2c3c(c4ccccc4c2OC(=O)CCCc2cn([C@@H]4OC[C@@H](OC(C)=O)[C@H](OC(C)=O)[C@H]4OC(C)=O)nn2)OC(C)(C)C=C3)nn1
Response: > 200 µg/mL

Prompt: Quick one: MIC for C#CCCC(=O)Oc1c2c(c3ccccc3c1OC(=O)CCC#C)OC(C)(C)C=C2 ?
Response: > 200 µg/mL

Prompt: Entry under review: Cc1ccc(S(=O)(=O)n2cc(CCC(=O)Oc3c4c(c5ccccc5c3OC(=O)CCc3cn(S(=O)(=O)c5ccc(C)cc5)nn3)OC(C)(C)C=C4)nn2)cc1 . Reported MIC?
Response: > 200 µg/mL

* * *

Provide the reported CC50 at 24 h of each item.
# assay: Cytotoxicity on L929 fibroblasts (resazurin)
# condition.label: mouse
Dear colleague, please return just the value in µM, with no unit written.

Prompt: If you can, please state the reported CC50 at 24 h value of Cc1ccc(S(=O)(=O)n2cc(CCCC(=O)Oc3c4c(c5ccccc5c3OC(=O)CCCc3cn(S(=O)(=O)c5ccc(C)cc5)nn3)OC(C)(C)C=C4)nn2)cc1 .
Response: 312

Prompt: So what does the record say about CC50 at 24 h for C#CCCC(=O)Oc1c2c(c3ccccc3c1OC(=O)CCC#C)OC(C)(C)C=C2 ?
Response: 106

* * *

# assay: Cytotoxicity on L929 fibroblasts (resazurin)
# condition.label: mouse
experimental.endpoint: CC50 at 24 h

Prompt: What CC50 at 24 h value was documented for this compound, COc1ccc(-n2cc(CCC(=O)Oc3c4c(c5ccccc5c3OC(=O)CCc3cn(-c5ccc(OC)cc5)nn3)OC(C)(C)C=C4)nn2)cc1 [Compound 2b] ?
Response: > 256 µM

Prompt: // returns reported CC50 at 24 h for input Cc1ccc(S(=O)(=O)n2cc(CCC(=O)Oc3c4c(c5ccccc5c3OC(=O)CCc3cn(S(=O)(=O)c5ccc(C)cc5)nn3)OC(C)(C)C=C4)nn2)cc1 [Compound 2f]
Response: 31.8 µM

Prompt: Could you share which CC50 at 24 h value was measured for Cc1ccc(-n2cc(CCCC(=O)Oc3c4c(c5ccccc5c3OC(=O)CCCc3cn(-c5ccc(C)cc5)nn3)OC(C)(C)C=C4)nn2)cc1 [Compound 3d] ?
Response: > 256 µM

Reference source for all entries: paper PMC11510191
